assay.comment: activity coefficient (dimensionless); of the first substance listed, at infinite dilution; xn = mol fraction of the nth substance listed
assay.conditions: 323 K; 101.33 kPa; Liquid; Chromatography; x1 = 0
readout: activity coefficient
// return just the number, without any unit appended

Take a look at these entries with their results.
- compound: "CO [methanol] + C[n+]1ccn(CCO)c1.O=S(=O)([O-])C(F)(F)C(F)(F)C(F)(F)C(F)(F)F"
  endpoint.result: 0.93
- compound: "C#CCCCCC [1-heptyne] + C[n+]1ccn(CCO)c1.O=S(=O)([O-])C(F)(F)C(F)(F)C(F)(F)C(F)(F)F"
  endpoint.result: 13.4

From here, focus on the item given below.
Field activity coefficient (entry CCO [ethanol] + C[n+]1ccn(CCO)c1.O=S(=O)([O-])C(F)(F)C(F)(F)C(F)(F)C(F)(F)F ) reads 1.38

Values compiled from the NIST ThermoML archive (doi:10.1021/acs.jced.8b00080).
